Tested on: HCT116 cells
Test Description: MTT assay
Assay type: cell-based
Measurement Conditions: Homo sapiens, HCT-116, 72 h, Table 5F; HCT116 cells, 72 hours
pIC50: −log10 of the molar value.
Measured Attribute: pIC50

>  <Molecule>
Nc1ccccc1NC(=O)c1ccc(CNCCc2c[nH]c3ccccc23)cc1

>  <Measured Attribute>
pIC50

>  <Result Value>
6.10

$$$$
>  <Molecule>
CNc1nc2ccc(NCc3ccc(C(=O)Nc4ccccc4N)cc3)cc2n1C

>  <Measured Attribute>
pIC50

>  <Result Value>
6.52

$$$$
>  <Molecule>
Nc1ccccc1NC(=O)c1ccc(CC2C(=O)c3ccccc3C2O)cc1 (centres unmarked)

>  <Measured Attribute>
pIC50

>  <Result Value>
6.22

$$$$
>  <Molecule>
COc1cc(CNc2ccc(C(=O)Nc3ccccc3N)cc2)cc(OC)c1

>  <Measured Attribute>
pIC50

>  <Result Value>
6.22

$$$$
>  <Molecule>
Nc1ccccc1NC(=O)c1ccc(CSc2nccc(C(F)(F)F)n2)cc1

>  <Measured Attribute>
pIC50

>  <Result Value>
6.22

$$$$
>  <Molecule>
CC(=O)Nc1ccc(NCc2ccc(C(=O)Nc3ccccc3N)cc2)cc1

>  <Measured Attribute>
pIC50

>  <Result Value>
6.52

$$$$
>  <Molecule>
Nc1ccccc1NC(=O)c1ccc(Cc2coc3ccccc3c2=O)cc1

>  <Measured Attribute>
pIC50

>  <Result Value>
6.52

$$$$
>  <Molecule>
CC(=O)Nc1sc(Cc2ccc(C(=O)Nc3ccccc3N)cc2)cc1C(N)=O

>  <Measured Attribute>
pIC50

>  <Result Value>
6.30

$$$$
>  <Molecule>
CCN1C(=O)C(Cc2ccc(C(=O)Nc3ccccc3N)cc2)Oc2ccccc21 (centres unmarked)

>  <Measured Attribute>
pIC50

>  <Result Value>
5.40

$$$$
>  <Molecule>
COc1ccc(NCc2ccc3oc(C(=O)Nc4ccccc4N)cc3c2)cc1OC

>  <Measured Attribute>
pIC50

>  <Result Value>
6.10

$$$$
>  <Molecule>
Nc1ccccc1NC(=O)c1ccc(COc2ccc3ccccc3n2)cc1

>  <Measured Attribute>
pIC50

>  <Result Value>
6.15

$$$$
>  <Molecule>
Nc1ccccc1NC(=O)c1ccc(CSc2cccc3cccnc23)cc1

>  <Measured Attribute>
pIC50

>  <Result Value>
6.05

$$$$
>  <Molecule>
CCn1c(=O)n(Cc2ccc(C(=O)Nc3ccccc3N)cc2)c(=O)c2ccccc21

>  <Measured Attribute>
pIC50

>  <Result Value>
6.40

$$$$
>  <Molecule>
Nc1ccccc1NC(=O)c1ccc(CNc2nc(Cl)nc3[nH]cnc23)cc1

>  <Measured Attribute>
pIC50

>  <Result Value>
6.00

$$$$
>  <Molecule>
COc1ccc(C2=NC(c3ccc(C(=O)Nc4ccccc4N)cc3)CO2)cc1OC (centres unmarked)

>  <Measured Attribute>
pIC50

>  <Result Value>
5.52

$$$$
>  <Molecule>
CCCc1nc(Cc2ccc(C(=O)Nc3ccccc3N)cc2)no1

>  <Measured Attribute>
pIC50

>  <Result Value>
5.70

$$$$
>  <Molecule>
COc1cccc(NCc2ccc(C(=O)Nc3ccccc3N)cc2)n1

>  <Measured Attribute>
pIC50

>  <Result Value>
6.10

$$$$
>  <Molecule>
Cc1ccc(C#N)c(OCc2ccc(C(=O)Nc3ccccc3N)cc2)n1

>  <Measured Attribute>
pIC50

>  <Result Value>
6.30

$$$$
>  <Molecule>
CCn1c(=O)n(Cc2ccc(C(=O)Nc3ccccc3N)cc2)c(=O)c2sccc21

>  <Measured Attribute>
pIC50

>  <Result Value>
6.10

$$$$
>  <Molecule>
Nc1ccccc1NC(=O)c1ccc(NCc2cccc(F)c2)cc1

>  <Measured Attribute>
pIC50

>  <Result Value>
6.22

$$$$
>  <Molecule>
Nc1ccccc1NC(=O)c1ccc(NCc2ccc(F)cc2)cc1

>  <Measured Attribute>
pIC50

>  <Result Value>
5.70

$$$$
>  <Molecule>
COc1cc(NCc2ccc(C(=O)Nc3ccccc3N)cc2)nc(OC)n1

>  <Measured Attribute>
pIC50

>  <Result Value>
6.00

$$$$
>  <Molecule>
Cc1cc(C)n(-c2ccc(C(=O)Nc3ccccc3N)cc2)n1

>  <Measured Attribute>
pIC50

>  <Result Value>
5.70

$$$$
>  <Molecule>
Nc1ccccc1NC(=O)c1ccc(C#CC2(O)CCCCC2)nc1

>  <Measured Attribute>
pIC50

>  <Result Value>
5.22

$$$$
>  <Molecule>
Nc1ccccc1NC(=O)c1ccc(CNc2cccc(F)c2)cc1

>  <Measured Attribute>
pIC50

>  <Result Value>
6.00

$$$$
>  <Molecule>
CSc1cccc(NCc2ccc(C(=O)Nc3ccccc3N)cc2)c1

>  <Measured Attribute>
pIC50

>  <Result Value>
6.22

$$$$
>  <Molecule>
Nc1ccccc1NC(=O)c1ccc(CNc2ccc3[nH]c(=O)[nH]c3c2)cc1

>  <Measured Attribute>
pIC50

>  <Result Value>
5.22

$$$$
>  <Molecule>
CN(C)CCn1c(=O)n(Cc2ccc(C(=O)Nc3ccccc3N)cc2)c(=O)c2ccccc21

>  <Measured Attribute>
pIC50

>  <Result Value>
6.00

$$$$
>  <Molecule>
COc1cc(C#N)c(NCc2ccc(C(=O)Nc3ccccc3N)cc2)cc1OC

>  <Measured Attribute>
pIC50

>  <Result Value>
6.22

$$$$
>  <Molecule>
CCCCn1cnc2c(NCc3ccc(C(=O)Nc4ccccc4N)cc3)nc(Cl)nc21

>  <Measured Attribute>
pIC50

>  <Result Value>
7.00

$$$$
>  <Molecule>
COc1ccc(NCc2ccc(C(=O)Nc3ccccc3N)cc2)c(C)c1

>  <Measured Attribute>
pIC50

>  <Result Value>
6.70

$$$$
>  <Molecule>
COc1cc(NCc2ccc(C(=O)Nc3ccccc3N)cc2)ncn1

>  <Measured Attribute>
pIC50

>  <Result Value>
6.00

$$$$
>  <Molecule>
COc1ccc(NCc2ccc(C(=O)Nc3ccccc3N)cc2)cc1OCc1cccnc1

>  <Measured Attribute>
pIC50

>  <Result Value>
6.00

$$$$
>  <Molecule>
CC(=O)c1cc2c(cc1NCc1ccc(C(=O)Nc3ccccc3N)cc1)OCO2

>  <Measured Attribute>
pIC50

>  <Result Value>
6.00

$$$$
>  <Molecule>
COc1cc(NCc2ccc(C(=O)Nc3cscc3N)cc2)cc(OC)c1OC

>  <Measured Attribute>
pIC50

>  <Result Value>
6.15

$$$$
